meta.source: PubChem BioAssay (NCI)

Test system: IGROV1 ovarian
Experiment: NCI tumour cell line growth inhibition, 48 h
// values below are reported GI50

Below, 5 molecules whose answers are already recorded.
>>> result("CCc1n(Cc2ccc3ccccc3n2)cc[n+]1Cc1ccc2ccccc2n1")
"0.214 µM"
>>> result("CC1(C)CC[C@H](Nc2ncc(C(F)(F)F)c(-c3c[nH]c4c(P(C)(C)=O)c(C#N)ccc34)n2)CN1")
"0.0231 µM"
>>> result("O=C1C=C(NCCNC(=S)Nc2ccccc2)c2nccc3c2c1nc1ccccc13")
"56.8 µM"
>>> result("CCn1c(C(=O)N(C2CC2)C2CC2)cc2c3c(ncn3C)c(Nc3cc(C)n(C)n3)nc21")
"7.62 µM"
>>> result("COc1ccc2c(c1)C(=O)c1c-2n(CCCN=[N+]=[N-])c(=O)c2cc(N(C)C)ccc12")
"> 100 µM"

Qu. Which GI50 value belongs to C/C(=N\O)c1cccc(Nc2cc(-n3ccnn3)c3ccccc3n2)c1 ?
Ans. 12.6 µM

Qu. Try the molecule Clc1ccc(N2N=C(c3cccc(Nc4ccncc4)c3)CC2c2ccc3c(c2)OCO3)cc1 (centres undefined)
Ans. 1.73 µM

Qu. Try the molecule COc1ccc(C2SCC(=O)N2NC(=O)C(O)c2ccccc2)cc1OC (centres undefined)
Ans. > 100 µM

Qu. Try the molecule CCCc1c(CC)c(=N)c2ccccc2n1C
Ans. > 100 µM

Qu. Try the molecule O=C1C(c2c[nH]c3ccccc23)=C(c2c[nH]c3ccccc23)C(=O)N1O
Ans. > 25 µM

Qu. Try the molecule CN(C)c1ccc([O-])cc1.CN(C)c1ccc([O-])cc1.CN(C)c1ccc([O-])cc1.CN(C)c1ccc([O-])cc1.[Ti+4]
Ans. > 100 µM

Qu. Try the molecule COc1ccccc1/C=C/[N+](=O)[O-]
Ans. 2.54 µM

Qu. Try the molecule COc1cc2c(c(OC)c1OC)-c1ccc(N)c(=O)cc1[C@@H](NC(C)=O)CC2
Ans. 0.0359 µM

Qu. Try the molecule C=C1SC(=Nc2c(C)cc(C)cc2C)N(C(=O)c2sc3ccccc3c2Cl)C12CCCCC2
Ans. > 100 µM

* * *

Tested on: SNB-19 CNS
Assay: NCI tumour cell line growth inhibition, 48 h
QUANTITY MEASURED: TGI

Qu. Which TGI value belongs to C(=C\c1cccc(/C=C/c2ccccn2)n1)/c1ccccn1 ?
Ans. > 100 µM

Qu. Try the molecule O=[N+]([O-])c1ccc(S(=O)Cc2ccccc2)c([N+](=O)[O-])c1 (stereo not drawn)
Ans. 27.6 µM

Qu. Try the molecule CCOP(=O)(OCC)C(Nc1cccc(F)c1)c1ccccc1 (stereo not drawn)
Ans. > 100 µM

Qu. Try the molecule Cc1ccc(-c2cc(-c3ccco3)c(C#N)c(=O)[nH]2)cc1
Ans. > 100 µM

* * *

Tested on: SK-OV-3 ovarian
Assay: NCI tumour cell line growth inhibition, 48 h
// values below are reported GI50

>>> result("Cc1cc(/C=C\\c2ccc3ccccc3[n+]2C)c(O)c2ncccc12")
"1.68 µM"
>>> result("CCN(CC)CCNc1ccc([N+](=O)[O-])c2sc3ccccc3c(=O)c12")
"2.08 µM"
>>> result("O=C(/C=C/C12c3ccccc3C(c3ccccc31)C1C(=O)N(c3ccccc3)C(=O)C12)c1ccccc1 (stereo unspecified)")
"28.3 µM"

Qu. Which GI50 value belongs to O=C(Nc1ccc(F)cc1)c1ccc(NC2=C(Cl)C(=O)N(Cc3ccccc3)C2=O)cc1 ?
Ans. 24 µM

Qu. Try the compound C1C[OH+]CC[OH+]CCNCC[OH+]CC[OH+]CCN1.[Cl-].[Pt+4]
Ans. > 100 µM
